test: Stability of the analytes in spiked plasma, brain, kidney and spleen matrices (autosampler, long-term, freeze-thaw)
Type: physicochemical, mice
experimental.parameters: plasma, nominal 30.0 µg/mL, processed samples in autosampler vials 24 h room temperature
Below, each entry is listed with its recorded Stability Autosampler RE (%).
Put your answer as a value accompanied by its unit after it.

Some compounds with recorded Stability Autosampler RE (%):
COc1cc2ccc(=O)oc2c(OC)c1OC [DF, dimethylfraxetin]: 4.21%
COc1cc2ccc(=O)oc2cc1OCC=C(C)C [PE, 7-O-prenylscopoletin]: 8.22%
CC(C)=CCOc1ccc2ccc(=O)oc2c1 [PU, 7-O-prenylumbelliferone]: -9.86%
COc1cc2ccc(=O)oc2cc1OC [SC, scoparone]: 4.74%

Now consider the entry below.
Query :: Please give the measured Stability Autosampler RE (%) for this compound: COc1ccc2ccc(=O)oc2c1 [HR, herniarin]
Result :: 14.32%

---

test: Stability of the analytes in spiked plasma, brain, kidney and spleen matrices (autosampler, long-term, freeze-thaw)
Format: physicochemical, mice
experimental.parameters: spleen, nominal 3.0 µg/mL, three cycles (−4 °C to 25 °C)
Listed here are compounds together with their documented Stability Freeze-Thaw RE (%).

Consider the following illustrative entries.
COc1cc2ccc(=O)oc2cc1OCC=C(C)C: 4.42%
CC(C)=CCOc1ccc2ccc(=O)oc2c1: 2.88%
COc1cc2ccc(=O)oc2c(OC)c1OC: 0.49%

Query :: Look up Stability Freeze-Thaw RE (%) for this compound: COc1cc2ccc(=O)oc2cc1OC
Result :: -2.65%

Query :: One more compound: COc1ccc2ccc(=O)oc2c1
Result :: 4.87%

---

The following molecules are listed with their measured Stability Freeze-Thaw RE (%) values.
test: Stability of the analytes in spiked plasma, brain, kidney and spleen matrices (autosampler, long-term, freeze-thaw)
Assay type: physicochemical, mice
experimental.parameters: kidney, nominal 0.3 µg/mL, three cycles (−4 °C to 25 °C)
Your answer is read as %, so omit the unit and give the number.

Sample answers from the record:
COc1cc2ccc(=O)oc2c(OC)c1OC: -0.65
CC(C)=CCOc1ccc2ccc(=O)oc2c1: 3.61
COc1cc2ccc(=O)oc2cc1OCC=C(C)C: 2.26
COc1cc2ccc(=O)oc2cc1OC: 2.62

// next item, Stability Freeze-Thaw RE (%) requested
Query :: Fill in: Stability Freeze-Thaw RE (%) of COc1ccc2ccc(=O)oc2c1 is ___
Result :: 2.03

---

test: Stability of the analytes in spiked plasma, brain, kidney and spleen matrices (autosampler, long-term, freeze-thaw)
Assay type: physicochemical, mice
experimental.parameters: kidney, nominal 3.0 µg/mL, processed samples in autosampler vials 24 h room temperature
Entries and their Stability Autosampler RE (%) values follow.
Number in %, nothing else.

Sample records with Stability Autosampler RE (%):
COc1cc2ccc(=O)oc2c(OC)c1OC [DF, dimethylfraxetin]: 4.79
COc1cc2ccc(=O)oc2cc1OCC=C(C)C [PE, 7-O-prenylscopoletin]: 3.99
CC(C)=CCOc1ccc2ccc(=O)oc2c1 [PU, 7-O-prenylumbelliferone]: 5.21
COc1ccc2ccc(=O)oc2c1 [HR, herniarin]: 2.81

Query :: Consider the compound COc1cc2ccc(=O)oc2cc1OC [SC, scoparone] and give its measured Stability Autosampler RE (%).
Result :: 5.72

---

test: Pharmacokinetic study in plasma after oral hexanic extract of Tagetes lucida, healthy and LPS-damaged mice
Type: in vivo, ICR mice
experimental.parameters: ICR, mouse, plasma, po, 10 mg/kg, healthy ICR mice, 10 mg/kg oral hexanic extract, to 6 h, mean ± SEM (n = 5)
Procedure: The optimized HPLC-validated method for the quantification of coumarins present in the hexane extract of T. lucida was used to evaluate the concentration profiles over time in the plasma, brain, kidney, and spleen biological matrices after an oral administration of 10 mg/kg of the extract. Blood samples were obtained from the retro-orbital sinus of mice and collected in heparinized tubes. […] Pharmacokinetic parameters of PE, SC, DF, HR, and PU in plasma were calculated by PKSolver software.
measure: AUC(0-t) (ng·h/mL)
A number alone suffices; assume ng·h/mL.

Some solved entries appear below for comparison.
COc1ccc2ccc(=O)oc2c1 [HR, herniarin]: 920
CC(C)=CCOc1ccc2ccc(=O)oc2c1 [PU, 7-O-prenylumbelliferone]: 1490

Query :: Param item = COc1cc2ccc(=O)oc2cc1OCC=C(C)C [PE, 7-O-prenylscopoletin] ; retrieve measured AUC(0-t).
Result :: 1560

Query :: Consider next the molecule COc1cc2ccc(=O)oc2c(OC)c1OC [DF, dimethylfraxetin] in the same way.
Result :: 1640

Query :: Another molecule to check: COc1cc2ccc(=O)oc2cc1OC [SC, scoparone]
Result :: 2870

---

test: Pharmacokinetic study in plasma after oral hexanic extract of Tagetes lucida, healthy and LPS-damaged mice
Assay type: in vivo, ICR mice
experimental.parameters: ICR, mouse, plasma, po, 10 mg/kg, healthy ICR mice, 10 mg/kg oral hexanic extract, non-compartmental, mean ± SEM (n = 5)
Listing of recorded Cmax by entry.

The examples below pair each entry with its known result.
COc1cc2ccc(=O)oc2c(OC)c1OC [DF, dimethylfraxetin]: 580 ng/mL
COc1cc2ccc(=O)oc2cc1OC [SC, scoparone]: 970 ng/mL
COc1cc2ccc(=O)oc2cc1OCC=C(C)C [PE, 7-O-prenylscopoletin]: 930 ng/mL

Query :: Would you mind telling me what Cmax value was observed for COc1ccc2ccc(=O)oc2c1 [HR, herniarin] ?
Result :: 620 ng/mL

Query :: Further, for CC(C)=CCOc1ccc2ccc(=O)oc2c1 [PU, 7-O-prenylumbelliferone] ?
Result :: 560 ng/mL

---

test: Stability of the analytes in spiked plasma, brain, kidney and spleen matrices (autosampler, long-term, freeze-thaw)
Assay type: physicochemical, mice
experimental.parameters: kidney, nominal 3.0 µg/mL, −70 °C for 30 days
Quick list: Stability Long-Term RE (%) per entry.
I only need the number, in %, no unit after it.

Consider the reported Stability Long-Term RE (%) for these compounds:
COc1ccc2ccc(=O)oc2c1: 3.06
COc1cc2ccc(=O)oc2c(OC)c1OC: 8.12
CC(C)=CCOc1ccc2ccc(=O)oc2c1: 8.68
COc1cc2ccc(=O)oc2cc1OC: 2.63

With those in mind, consider the next compound.
Query :: Fill blank: measured Stability Long-Term RE (%) of the compound COc1cc2ccc(=O)oc2cc1OCC=C(C)C is ____.
Result :: 2.69

---

Catalogue of compounds with associated Stability Freeze-Thaw RE (%)
test: Stability of the analytes in spiked plasma, brain, kidney and spleen matrices (autosampler, long-term, freeze-thaw)
Type: physicochemical, mice
experimental.parameters: kidney, nominal 30.0 µg/mL, three cycles (−4 °C to 25 °C)
Experimental: The stability of the compounds obtained from each enriched matrices at the QC concentrations was evaluated under different conditions that covered the processing, handling, and storage phases that could be developed throughout the study. […] The stability of the analytes in plasma, brain, kidneys, and spleen was evaluated by the analyzed concentrations of QC subjected to three different conditions. […] Freeze-thaw stability was determined after three cycles (−4 °C to 25 °C) on three consecutive days.
Provide only the numeric value, understood in %.

As a guide, the following entries are already answered.
COc1cc2ccc(=O)oc2c(OC)c1OC: 0.47
CC(C)=CCOc1ccc2ccc(=O)oc2c1: -1.02
COc1cc2ccc(=O)oc2cc1OCC=C(C)C: 1.12
COc1cc2ccc(=O)oc2cc1OC: 0.49

Query :: // returns reported Stability Freeze-Thaw RE (%) for input COc1ccc2ccc(=O)oc2c1
Result :: 2.25

---

test: Stability of the analytes in spiked plasma, brain, kidney and spleen matrices (autosampler, long-term, freeze-thaw)
Type: physicochemical, mice
experimental.parameters: plasma, nominal 3.0 µg/mL, processed samples in autosampler vials 24 h room temperature
Description: The stability of the compounds obtained from each enriched matrices at the QC concentrations was evaluated under different conditions that covered the processing, handling, and storage phases that could be developed throughout the study. […] The stability of the analytes in plasma, brain, kidneys, and spleen was evaluated by the analyzed concentrations of QC subjected to three different conditions. […] Freeze-thaw stability was determined after three cycles (−4 °C to 25 °C) on three consecutive days.
Form field: Stability Autosampler RE (%) (one value per entry).
Report the figure in % without appending any unit label.

COc1cc2ccc(=O)oc2cc1OC: 8.27

Query :: Could you share which Stability Autosampler RE (%) value was measured for COc1cc2ccc(=O)oc2cc1OCC=C(C)C ?
Result :: 11.12

Query :: Quick one: COc1cc2ccc(=O)oc2c(OC)c1OC
Result :: -1.38

Query :: Similarly, CC(C)=CCOc1ccc2ccc(=O)oc2c1 ?
Result :: -11.68

Query :: Another compound to look at: COc1ccc2ccc(=O)oc2c1
Result :: 12.83

---

test: Pharmacokinetic study in plasma after oral hexanic extract of Tagetes lucida, healthy and LPS-damaged mice
Assay type: in vivo, ICR mice
experimental.parameters: ICR, mouse, plasma, po, 10 mg/kg, healthy ICR mice, 10 mg/kg oral hexanic extract, mean ± SEM (n = 5)
Procedure: The optimized HPLC-validated method for the quantification of coumarins present in the hexane extract of T. lucida was used to evaluate the concentration profiles over time in the plasma, brain, kidney, and spleen biological matrices after an oral administration of 10 mg/kg of the extract. Blood samples were obtained from the retro-orbital sinus of mice and collected in heparinized tubes. […] Pharmacokinetic parameters of PE, SC, DF, HR, and PU in plasma were calculated by PKSolver software.
MRT for assorted molecules
Field: numeric (h). Do not append units.

Answered cases to consult:
COc1cc2ccc(=O)oc2cc1OCC=C(C)C: 3.04
COc1cc2ccc(=O)oc2c(OC)c1OC: 2.35
COc1cc2ccc(=O)oc2cc1OC: 4.68
COc1ccc2ccc(=O)oc2c1: 2.77

Query :: Please report the recorded MRT for CC(C)=CCOc1ccc2ccc(=O)oc2c1 .
Result :: 2.15
